Target: muscarinic receptors, cortex (M1) (Rattus norvegicus, UniProt P08482)
Sequence (P08482 1-460): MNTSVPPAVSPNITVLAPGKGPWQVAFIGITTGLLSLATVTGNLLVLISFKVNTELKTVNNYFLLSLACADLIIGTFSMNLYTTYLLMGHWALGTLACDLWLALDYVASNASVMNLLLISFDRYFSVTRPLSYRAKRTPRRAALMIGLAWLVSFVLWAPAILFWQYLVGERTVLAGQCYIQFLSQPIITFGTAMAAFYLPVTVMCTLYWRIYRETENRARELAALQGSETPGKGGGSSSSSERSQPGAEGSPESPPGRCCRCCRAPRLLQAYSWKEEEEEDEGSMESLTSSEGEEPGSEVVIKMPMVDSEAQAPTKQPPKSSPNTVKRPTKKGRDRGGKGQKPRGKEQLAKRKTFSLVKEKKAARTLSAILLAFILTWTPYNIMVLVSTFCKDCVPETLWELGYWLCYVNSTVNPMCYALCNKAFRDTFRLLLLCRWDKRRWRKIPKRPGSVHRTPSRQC
Result type: IC50 (nM)
# unit: nM | format: bare number

Incoming: Would you kindly share the measured IC50 for CN1CCC(NC(=O)C2c3ccccc3NC(=O)c3ccccc32)CC1 (racemic) [Substance A] ?
Outgoing: 6

Incoming: Would you kindly share the measured IC50 for CN1CCC(CC(=O)C2c3ccccc3NC(=O)c3ccccc32)CC1 (racemic) ?
Outgoing: 2.5

Incoming: Would you kindly share the measured IC50 for CN1CCN(CC(=O)C2c3ccccc3NC(=O)c3ccccc32)CC1 (racemic) ?
Outgoing: 8

Incoming: Would you kindly share the measured IC50 for CN1CCC(NC(=O)C2c3ccccc3NC(=O)c3ccccc32)CC1 (single isomer, unassigned; (+)) [Substance D] ?
Outgoing: 3
